# credit: paper PMC6686156

Here, each record is paired with measured log10 of EC50 data.
Tested on: T. b. brucei aqp2/aqp3‐KO
assay-summary: microbe, parasite or virus in culture
Format: cell-based, Trypanosoma brucei brucei
condition-description: Trypanosoma brucei, read-out: EC50 T. b. b. aqp2/aq3‐KO
// do not treat as linear: log10 of EC50, unit µM

O=C1C=C(Oc2ccccc2)C(=O)c2ccccc21 [Compound 4, 2‐phenoxynaphthalene‐1,4‐dione, reference compound] :: 1.80
COc1cccc2c1C(=O)C(Oc1cccc(CCCCCCCCO)c1)=CC2=O :: 1.25
O=C1C=C(Oc2cccc(CCCCCCCCO)c2)C(=O)c2c(O)cccc21 :: 1.67
O=C1C=C(Oc2cccc(CCCCCCCCO)c2)C(=O)c2ccccc21 :: 1.00
O=C1C(Oc2cccc(CCCCCCCCO)c2)=CC(=O)c2c(O)cccc21 :: 0.86
N=C(N)c1ccc(OCCCCCOc2ccc(C(=N)N)cc2)cc1 [PMD, Pentamidine, reference compound] :: -0.70

Return log10 of EC50 (reported value) for this molecule: `COc1cccc2c1C(=O)C=C(Oc1cccc(CCCCCCCCO)c1)C2=O` 0.79

----------
Catalogue of molecules with associated SI, selectivity index=EC50(HFF)/EC50(T. b. b. WT)
Test system: T. b. brucei 427WT bloodstream trypomastigotes
assay-summary: microbe, parasite or virus in culture
Format: cell-based, Trypanosoma brucei brucei
condition-description: HFF versus T. b. b. 427WT

Record excerpt, results attached:
O=C1C=C(Oc2cccc(CCCCCCCCO)c2)C(=O)c2c(O)cccc21 [Compound 21] :: >5
COc1cccc2c1C(=O)C(Oc1cccc(CCCCCCCCO)c1)=CC2=O [Compound 19] :: >13.3
O=C1C=C(Oc2cccc(CCCCCCCCO)c2)C(=O)c2ccccc21 [Compound 18] :: >21.98
COc1cccc2c1C(=O)C=C(Oc1cccc(CCCCCCCCO)c1)C2=O [Compound 20] :: >40

Fill in reported SI, selectivity index=EC50(HFF)/EC50(T. b. b. WT) for this entry: O=C1C(Oc2cccc(CCCCCCCCO)c2)=CC(=O)c2c(O)cccc21 [Compound 22] >26.3
